Could you please report measured pIC50 for the items listed next?
- experimental.system: Recombinant human FGFR1 (Homo sapiens, UniProt P11362)
- Sequence (P11362 22-822): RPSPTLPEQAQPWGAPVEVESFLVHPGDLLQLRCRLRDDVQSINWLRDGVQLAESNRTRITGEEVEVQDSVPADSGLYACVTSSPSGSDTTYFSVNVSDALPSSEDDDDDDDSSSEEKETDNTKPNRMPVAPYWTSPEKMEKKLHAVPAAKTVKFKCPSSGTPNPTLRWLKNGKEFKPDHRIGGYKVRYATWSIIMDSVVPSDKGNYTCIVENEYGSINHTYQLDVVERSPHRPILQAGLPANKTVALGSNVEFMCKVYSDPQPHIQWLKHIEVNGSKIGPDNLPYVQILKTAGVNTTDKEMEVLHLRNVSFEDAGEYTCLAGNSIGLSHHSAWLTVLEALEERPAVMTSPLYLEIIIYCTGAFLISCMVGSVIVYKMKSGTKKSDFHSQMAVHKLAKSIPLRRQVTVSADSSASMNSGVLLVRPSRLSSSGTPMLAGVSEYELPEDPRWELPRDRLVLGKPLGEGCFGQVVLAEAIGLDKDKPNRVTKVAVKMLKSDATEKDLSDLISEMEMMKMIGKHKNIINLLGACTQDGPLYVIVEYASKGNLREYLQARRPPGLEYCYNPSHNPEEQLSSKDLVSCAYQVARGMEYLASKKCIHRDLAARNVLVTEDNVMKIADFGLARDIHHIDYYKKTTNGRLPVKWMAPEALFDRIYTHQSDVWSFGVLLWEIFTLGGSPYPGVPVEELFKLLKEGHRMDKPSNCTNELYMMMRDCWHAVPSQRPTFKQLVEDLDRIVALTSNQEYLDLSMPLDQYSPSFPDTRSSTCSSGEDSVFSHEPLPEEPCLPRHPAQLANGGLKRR
- protocol.description: Transcreener Kinase Assay of FGFR1
- Type: biochemical
- experimental.setup: read-out: FGFR1 (FP) IC50
Numbers only, as −log10 of the molar value.

Examples from the recorded data:
# chem.smiles, pIC50
data = [
    ("CONC(=O)c1cc(CCc2cnc(Nc3ccc(N4C[C@@H](C)N[C@@H](C)C4)cc3)nc2)cc(OC)c1", 8.40),
    ("CNC(=O)c1cc(CCc2cnc(Nc3cccnc3OC)nc2)c(F)c(OC)c1", 6.71),
    ("CONC(=O)c1cc(CCc2cnc(Nc3cnn(CCO)c3)nc2)cc(OC)c1", 8.30),
]

Give pIC50 for each listed item.
1. CNC(=O)c1cc(CCc2cnc(Nc3ccc4nnc(COC)n4c3)nc2)c(F)c(OC)c1
2. CNC(=O)c1cc(CCc2cnc(Nc3cnn(C[C@H](C)O)c3)nc2)c(F)c(OC)c1
3. CNC(=O)c1cc(CCc2cnc(Nc3ccc(CC(=O)O)cc3)nc2)c(F)c(OC)c1
4. CNC(=O)c1cc(CCc2cnc(Nc3cnn(C4CC4)c3)nc2)c(F)c(OC)c1

Data returned:
[7.24, 7.74, 7.42, 8.00]

Item "CNC(=O)c1cc(CCc2cnc(Nc3cnn(C)c3C)nc2)c(F)c(OC)c1" ; assay system Recombinant human FGFR1 (Homo sapiens, UniProt P11362); pIC50 reported as 7.51

---

- experimental.system: Recombinant human FGFR2 (Homo sapiens)
- Sequence (P21802 22-821): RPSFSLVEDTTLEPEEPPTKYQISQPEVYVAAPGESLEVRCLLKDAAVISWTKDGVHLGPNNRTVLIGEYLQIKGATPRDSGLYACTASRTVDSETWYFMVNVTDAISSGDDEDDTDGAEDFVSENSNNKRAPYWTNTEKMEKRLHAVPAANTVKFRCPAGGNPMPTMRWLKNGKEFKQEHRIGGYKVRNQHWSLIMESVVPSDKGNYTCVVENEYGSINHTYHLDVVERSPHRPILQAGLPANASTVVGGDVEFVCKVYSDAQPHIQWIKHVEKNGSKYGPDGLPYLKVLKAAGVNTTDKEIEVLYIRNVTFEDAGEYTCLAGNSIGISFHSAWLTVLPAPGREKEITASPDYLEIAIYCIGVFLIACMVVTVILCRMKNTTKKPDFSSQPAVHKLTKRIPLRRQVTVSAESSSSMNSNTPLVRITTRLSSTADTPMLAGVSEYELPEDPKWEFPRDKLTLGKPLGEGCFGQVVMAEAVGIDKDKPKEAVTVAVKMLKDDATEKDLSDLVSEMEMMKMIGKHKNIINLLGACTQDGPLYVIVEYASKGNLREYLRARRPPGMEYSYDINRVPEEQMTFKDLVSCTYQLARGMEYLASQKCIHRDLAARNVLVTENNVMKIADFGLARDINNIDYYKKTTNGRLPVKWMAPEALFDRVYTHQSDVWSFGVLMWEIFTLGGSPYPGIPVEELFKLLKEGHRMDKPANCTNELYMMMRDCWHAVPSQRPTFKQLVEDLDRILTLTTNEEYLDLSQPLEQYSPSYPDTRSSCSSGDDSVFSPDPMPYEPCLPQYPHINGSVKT
- protocol.description: Transcreener Kinase Assay of FGFR2
- Type: biochemical
- experimental.setup: read-out: FGFR2 (FP) IC50
parameter: pIC50
Numbers only, as −log10 of the molar value.

Examples with answers:
# compound, reported
rows = [
    ("CNC(=O)c1cc(CCc2cnc(Nc3cnn(CC(F)(F)F)c3)nc2)c(F)c(OC)c1 [Compound 36]", 6.21),
    ("CNC(=O)c1cc(CCc2cnc(Nc3cnn(CCCN(C)C)c3)nc2)c(F)c(OC)c1 [Compound 133]", 8.10),
    ("CCS(=O)(=O)n1cc(Nc2ncc(CCc3cc(C(=O)NC)cc(OC)c3F)cn2)cn1 [Compound 140]", 7.80),
    ("CNC(=O)c1cc(CCc2cnc(Nc3cnn(CCCOC)c3)nc2)c(F)c(OC)c1 [Compound 126]", 8.10),
    ("CNC(=O)c1cc(COc2cnc(Nc3cnn(C)c3)nc2)c(F)c(OC)c1 [Compound 182]", 8.05),
]

// each listed compound needs a value for pIC50
1. CNC(=O)c1cc(CCc2cnc(Nc3cnn([C@H]4CCCN(C)C4)c3)nc2)c(F)c(OC)c1 [Compound 172]
2. CCN1CCN(c2ccc(Nc3ncc(CCc4cc(C(=O)NC)cc(OC)c4F)cn3)cc2)CC1 [Compound 44]
3. CNC(=O)c1cc(COc2cnc(Nc3ccc(N4CCNC(C)(C)C4)cc3)nc2)c(F)c(OC)c1 [Compound 193]
4. CNC(=O)c1cc(CCc2cnc(Nc3cnn(CCO)c3)nc2)c(F)c(OC)c1 [Compound 114]

Data returned:
[8.22, 8.40, 8.30, 8.30]

---

- experimental.system: Recombinant human FGFR1 (Homo sapiens)
- protocol.description: Transcreener Kinase Assay of FGFR1
- Format: biochemical
- experimental.setup: read-out: FGFR1 (FP) IC50
- Description: Transcreener Kinase Assay of FGFR1 Prepare Solution • Compounds were solved in DMSO and were diluted with assay buffer to 5 folds of final concentration keeping the DMSO concentration at 5%. […] • [ADP] in Compound well represents the ADP concentration in compound well. • [ADP] in Positive control well represents the ADP concentration in 5% DMSO well • Conversion of mP value to ADP concentration is calculated based on the formula which determined by standard curve. […]
Provide the reported pIC50 of each item.
Numbers only, as −log10 of the molar value.

# chem.smiles, pIC50
rows = [
    ("CNC(=O)c1cc(CCc2cnc(Nc3cnn(CC(=O)N4CCCC4)c3)nc2)c(F)c(OC)c1", 7.39),
    ("CNC(=O)c1cc(CCc2cnc(Nc3cnn(C(F)F)c3)nc2)c(F)c(OC)c1", 7.57),
]

Batch lookup, pIC50 per entry.
1. CNC(=O)c1cc(CCc2cnc(Nc3cnn(CC(F)(F)F)c3)nc2)c(F)c(OC)c1
2. CNC(=O)c1cc(CCc2cnc(Nc3cnn(CC(C)C)c3)nc2)c(F)c(OC)c1
3. CCOc1cc(CCc2cnc(Nc3ccc(N4CCN(CC)CC4)cc3)nc2)cc(C(=O)NOC)c1
4. CCN1CCN(c2cc(F)cc(Nc3ncc(CCc4cc(OC)cc(C(=O)NOC)c4)cn3)c2)CC1
5. CCN1CC(n2cc(Nc3ncc(CCc4cc(C(=O)NC)cc(OC)c4F)cn3)cn2)C1
6. CNC(=O)c1cc(CCc2cnc(Nc3ccc(N4C[C@@H](C)N[C@@H](C)C4)c(C)c3)nc2)c(Cl)c(OC)c1
7. CNC(=O)c1cc(COc2cnc(Nc3ccc(N4CCNC(C)(C)C4)cc3)nc2)c(F)c(OC)c1

Data returned:
1: 7.68; 2: 7.64; 3: 6.99; 4: 8.30; 5: 7.74; 6: 8.00; 7: 8.10

Batch lookup, pIC50 per entry.
1. CNC(=O)c1cc(CCc2cnc(Nc3cnn(CCS(C)(=O)=O)c3)nc2)c(Cl)c(OC)c1
2. CNC(=O)c1cc(COc2cnc(Nc3ccc(N4C[C@@H](C)N[C@@H](C)C4)nc3)nc2)c(F)c(OC)c1
3. CNC(=O)c1cc(CCc2cnc(Nc3cnn(C[C@@H](C)O)c3)nc2)c(F)c(OC)c1
4. CONC(=O)c1cc(CCc2cnc(Nc3ccc(Cl)cc3)nc2)cc(OC)c1
5. CNC(=O)c1cc(CCc2cnc(Nc3cnn(Cc4ccccn4)c3)nc2)c(F)c(OC)c1
6. CNC(=O)c1cc(CCc2cnc(Nc3ccnnc3)nc2)c(F)c(OC)c1
7. CNC(=O)c1cc(CCc2cnc(Nc3ccc(-n4cccn4)cc3)nc2)c(F)c(OC)c1

Data returned:
[7.82, 7.54, 7.66, 7.32, 7.70, 7.27, 7.52]

---

- experimental.system: Recombinant human FGFR1 (Homo sapiens)
- protocol.description: Transcreener Kinase Assay of FGFR1
- Assay type: biochemical
- experimental.setup: read-out: FGFR1 (FP) IC50
parameter: pIC50
Answers are plain numbers, as −log10 of the molar value.

# chem.smiles, experimental.system, pIC50
measured = [
    ("CCN1CCN(c2ccc(Nc3ncc(/C=C/c4cc(C(=O)NC)cc(OC)c4F)cn3)cc2)CC1", "Recombinant human FGFR1 (Homo sapiens)", 8.00),
    ("CCN(CC)CCCn1cc(Nc2ncc(CCc3cc(C(=O)NC)cc(OC)c3F)cn2)cn1", "Recombinant human FGFR1 (Homo sapiens)", 7.54),
    ("CCN1CCC(Cn2cc(Nc3ncc(CCc4cc(C(=O)NC)cc(OC)c4Cl)cn3)cn2)CC1", "Recombinant human FGFR1 (Homo sapiens)", 8.00),
    ("CNC(=O)c1cc(CCc2cnc(Nc3cnn(CCN4CCN(C)CC4)c3)nc2)c(F)c(OC)c1", "Recombinant human FGFR1 (Homo sapiens)", 7.85),
    ("CNC(=O)c1cc(CCc2cnc(Nc3ccc(N4CCNCC4)cc3)nc2)c(Cl)c(OC)c1", "Recombinant human FGFR1 (Homo sapiens)", 8.22),
]

Would you mind listing pIC50 for each of the following molecules?
1. CNC(=O)c1cc(OC)c(Cl)c(CCc2cnc(Nc3ccc(N4C[C@@H](C)N[C@@H](C)C4)cc3)nc2)c1F
2. CONC(=O)c1cc(CCc2cnc(Nc3ccc(N4CCN(C)[C@H](C)C4)cc3)nc2)cc(OC)c1
3. CONC(=O)c1cc(CCc2cnc(Nc3ccc(OC)cc3)nc2)cc(OC)c1

Data returned:
[7.70, 7.92, 8.00]

---

- experimental.system: Recombinant human FGFR1 (Homo sapiens, UniProt P11362)
- protocol.description: Transcreener Kinase Assay of FGFR1
- Format: biochemical
- experimental.setup: read-out: FGFR1 (FP) IC50
parameter: IC50
Enter the number, and then the unit.

# chem.smiles, experimental.system, reported
records = [
    ("CCN1CCC[C@H](n2cc(Nc3ncc(CCc4cc(C(=O)NC)cc(OC)c4F)cn3)cn2)C1", "Recombinant human FGFR1 (Homo sapiens, UniProt P11362)", "9 nM"),
    ("CNC(=O)c1cc(COc2cnc(Nc3ccc(N4C[C@@H](C)N[C@@H](C)C4)c(C)c3)nc2)c(Cl)c(OC)c1", "Recombinant human FGFR1 (Homo sapiens, UniProt P11362)", "7 nM"),
    ("CNC(=O)c1cc(COc2ccc(Nc3ccc(N4C[C@@H](C)N[C@@H](C)C4)cc3)nc2)c(F)c(OC)c1", "Recombinant human FGFR1 (Homo sapiens, UniProt P11362)", "181 nM"),
]

Working through the 6 compounds below one at a time, give IC50 for each.
1. CNC(=O)c1cc(CCc2cnc(Nc3cnn(CC4(C)COC4)c3)nc2)c(F)c(OC)c1
2. CNC(=O)c1cc(CCc2cnc(Nc3ccc4c(c3)OCO4)nc2)c(F)c(OC)c1
3. CCN1CCN(c2ccc(Nc3ncc(CCc4cc(OC)cc(C(=O)NOCCO)c4)cn3)cc2)CC1
4. CONC(=O)c1cc(CCc2cnc(Nc3ccccc3)nc2)cc(OC)c1
5. CNC(=O)c1cc(CCc2cnc(Nc3cnn(-c4ccc(C)nc4)c3)nc2)c(F)c(OC)c1
6. COc1cc(C(=O)NC2CC2)cc(CCc2cnc(Nc3cnn(C)c3)nc2)c1Cl

Data returned:
19 nM
42 nM
43 nM
9 nM
71 nM
20 nM
